Tested on: H9c2 (rat cardiomyoblast cells)
assay.comment: MTT cytotoxicity assay on H9c2 cells
Format: cell-based
test.parameters: 48 h incubation
As shown below, each of these compounds has a reported IC50 value.
Reply numerically in µM, unit not repeated.

stdin: Which IC50 is reported for this compound? `CC(=O)OC[C@H]1O[C@@H](n2cc(-c3ccc[n+]([Pt-2]4([CH3])[n+]5cccc6ccc7ccc[n+]4c7c65)c3)nn2)[C@H](OC(C)=O)[C@@H](OC(C)=O)[C@@H]1OC(C)=O.O=S(=O)([O-])C(F)(F)F`
stdout: 22

stdin: Which IC50 is reported for this compound? `CC(=O)OC[C@H]1O[C@@H](n2cc(-c3c[n+]([Pt-2]4([CH3])[n+]5cccc6ccc7ccc[n+]4c7c65)cn3C)nn2)[C@H](OC(C)=O)[C@@H](OC(C)=O)[C@@H]1OC(C)=O.O=S(=O)([O-])C(F)(F)F`
stdout: 53

stdin: Which IC50 is reported for this compound? N.N.[Cl][Pt][Cl] [Cisplatin, reference compound]
stdout: 8

Origin of values: paper PMC8395886
